Let's go through some recorded IC50 values for Factor D (Homo sapiens) together.
observedProperty: IC50

1. Cc1cc(C(F)(F)F)cc2c3c(N)ncnc3n(CC(=O)N3[C@@H]4C[C@@H]4C[C@H]3C(=O)Nc3cncc(C(F)(F)F)n3)c12 [Compound 348c]
< 100 nM
2. Nc1ncnc2c1c1ccccc1n2CC(=O)N1C[C@H](F)C[C@H]1C(=O)Nc1cccc(Br)n1 [Compound 19a]
< 100 nM
3. NCc1ccc2c(c1)c1c(N)ncnc1n2CC(=O)N1[C@@H]2C[C@@H]2C[C@H]1C(=O)Nc1cccc(Br)n1 [Compound 63d]
< 100 nM
4. N#Cc1ccc(CNC(=O)[C@@H]2CCCN2C(=O)Cn2c3ccccc3c3c(N)ncnc32)cc1 [Compound 250b]
> 1000 nM
5. Nc1ncnc2c1ncn2CC(=O)N1[C@@H]2CC[C@@H](C2)[C@H]1C(=O)NCc1cccc(Cl)c1F [Compound 124b]
> 1000 nM
6. Nc1ccc2c(c1)c1c(N)ncnc1n2CC(=O)N1[C@@H]2C[C@@H]2C[C@H]1C(=O)Nc1cccc(Br)n1 [Compound 61a]
< 100 nM
7. CSc1cn(CC(=O)N2[C@@H]3C[C@@H]3C[C@H]2C(=O)Nc2cccc(Br)n2)c2ncnc(N)c12 [Compound 154e]
100 to 1000 nM
8. Cc1nc(N)c2cnn(CC(=O)N3C[C@H](F)C[C@H]3C(=O)NCc3cccc(Cl)c3F)c2n1 [Compound 142d]
> 1000 nM
9. C[C@@]12C[C@@H](C(=O)Nc3cccc(Br)n3)N(C(=O)Cn3c4ncnc(N)c4c4cccc(C(=O)O)c43)[C@@H]1C2 [Compound 232a]
< 100 nM
10. Cc1ccnc2c3c(N)ncnc3n(CC(=O)N3[C@H](C(=O)Nc4cccc(Br)n4)C[C@@]4(C)C[C@@H]34)c12 [Compound 283g]
< 100 nM
11. Nc1ncnc2c1ncn2CC(=O)N1[C@@H]2C[C@@H]2C[C@H]1C(=O)Nc1cncc(Br)n1 [Compound 112b]
< 100 nM
12. Nc1ncnc2c1c1ccc(F)cc1n2CC(=O)N1[C@@H]2C[C@@H]2C[C@H]1C(=O)Nc1cccc(Br)n1 [Compound 33e]
< 100 nM
13. Cc1cc(C(F)(F)F)cc2c3c(N)ncnc3n(CC(=O)N3[C@@H]4C[C@@H]4C[C@H]3C(=O)Nc3cccc(Br)n3)c12 [Compound 194a]
< 100 nM
14. Nc1ncnc2c1c1cc(C(F)(F)F)ccc1n2CC(=O)N1[C@@H]2C[C@@H]2C[C@H]1C(=O)Nc1cncc(Br)n1 [Compound 260a]
< 100 nM
15. CNC(=O)Nc1ccc2c(c1)c1c(N)ncnc1n2CC(=O)N1[C@@H]2C[C@@H]2C[C@H]1C(=O)Nc1cccc(Br)n1 [Compound 297d]
< 100 nM
16. Nc1ncnc2c1c1cc(C(F)(F)F)ccc1n2CC(=O)N1C(=O)OC[C@H]1C(=O)NCc1cccc(Cl)c1F [Compound 251f]
100 to 1000 nM
17. Cc1cccc(-c2ccc3c(c2)c2c(N)ncnc2n3CC(=O)N2[C@@H]3C[C@@H]3C[C@H]2C(=O)Nc2cccc(Br)n2)c1 [Compound 271c]
< 100 nM
18. COc1cc2c3c(N)ncnc3n(CC(=O)N3[C@H](C(=O)Nc4cccc(Br)n4)C[C@@]4(C)C[C@@H]34)c2cc1OC [Compound 277a]
< 100 nM
19. Cc1cc(C(F)(F)F)cc2c3c(N)ncnc3n(CC(=O)N3C[C@H](F)C[C@H]3C(=O)Nc3cccc(Br)n3)c12 [Compound 301a]
< 100 nM
20. Cc1cc(C(F)(F)F)cc2c3c(N)ncnc3n(CC(=O)N3[C@H](C(=O)Nc4cccc(Cl)n4)C[C@@]4(C)C[C@@H]34)c12 [Compound 287a]
< 100 nM
21. Cc1cc(-c2ccc(C(F)(F)F)nc2)cc2c3c(N)ncnc3n(CC(=O)N3[C@H](C(=O)Nc4cccc(Br)n4)C[C@@]4(C)C[C@@H]34)c12 [Compound 357a]
< 100 nM
22. Cc1cc(C(F)(F)F)cc2c3c(N)ncnc3n(CC(=O)N3[C@@H]4C[C@@H]4C[C@H]3C(=O)Nc3cncc(Br)n3)c12 [Compound 295a]
< 100 nM
23. COc1cc2c(cc1Br)c1c(N)ncnc1n2CC(=O)N1[C@@H]2C[C@@H]2C[C@H]1C(=O)Nc1cccc(Br)n1 [Compound 374g]
< 100 nM
24. Nc1ccc2c3c(N)ncnc3n(CC(=O)N3[C@@H]4C[C@@H]4C[C@H]3C(=O)Nc3cccc(Br)n3)c2c1 [Compound 18a]
< 100 nM
25. Nc1ncnc2c1c1cccnc1n2CC(=O)N1[C@@H]2C[C@@H]2C[C@H]1C(=O)Nc1cccc(Br)n1 [Compound 162g]
< 100 nM
26. Cc1cc(C(F)(F)F)nc2c3c(N)ncnc3n(CC(=O)N3[C@@H]4C[C@@H]4C[C@H]3C(=O)Nc3cccc(Br)n3)c12 [Compound 362f]
< 100 nM
